testedOn: UniProt:Q96P20
experimentNotes: THP-1 cells pyroptosis assay (LPS + nigericin, resazurin read-out)
Format: cell-based
Set-up: Seed THP-1 cells (25,000 cells/well) containing 1.0 μg/ml LPS; host or cells: THP-1 cells
conditionContext: THP-1 cells, 1 μg/ml LPS, 5 μM nigericin; NLRP3 inhibitory activity; read-out: THP IC50
Structures can show the parent of a compound that is named as a salt.
The entries below come with measured IC50 values attached.
measurementName: IC50

>>> df
                                   molecule  measurementname  recordedvalue
0  CN(C)CC1CCCN1S(=O)(=O)NC(=O)Nc1c2c(cc3c1CCC3)CCC2 (stereo not shown) [Example 82, potassium salt]             IC50      < 5000 nM
1  CN(C)CCN(C)S(=O)(=O)NC(=O)Nc1c2c(cc3c1CCC3)CCC2 [Example 6, potassium salt]             IC50       < 500 nM
2  CC(C)c1cc(F)cc(-c2ccnc(C#N)c2)c1NC(=O)NS(=O)(=O)N(C)CC1CCCN1C (stereo not shown)             IC50      < 5000 nM
3  CN1CC[C@@H](N(C)S(=O)(=O)NC(=O)Nc2c3c(cc4c2CCC4)CCC3)C1 [Example 66, potassium salt]             IC50       < 500 nM
4  CN(C)C1CN(S(=O)(=O)NC(=O)Nc2c3c(cc4c2CCC4)CCC3)C1 [Example 17, potassium salt]             IC50      < 1000 nM
5  CN1C[C@H]2C[C@@H]1CN2S(=O)(=O)NC(=O)Nc1c2c(cc3c1CCC3)CCC2 [Example 43, potassium salt]             IC50       < 500 nM
6  CC(C)NCCNS(=O)(=O)NC(=O)Nc1c2c(cc3c1CCC3)CCC2             IC50       < 500 nM

----------
experimentNotes: PK, oral administration
Assay type: in vivo, male Sprague Dawley rats
conditionContext: male, Sprague Dawley, plasma, rat, 3 mg/kg
Counter-ions that a name gives are not always drawn.
The entries below come with measured Tmax values attached.
measurementName: Tmax (min)

                                   molecule  measurementname  scaleunit  recordedvalue
0  COc1cc(-c2ccc3c(c2NC(=O)NS(=O)(=O)N(C)[C@@H]2CCN(C)C2)CCC3)ccn1 [Example 110, potassium salt]             Tmax        min           40.2
1  COc1cc(-c2ccc3c(c2NC(=O)NS(=O)(=O)N(C)[C@H]2CCN(C)C2)CCC3)ccn1 [Example 111, potassium salt]             Tmax        min           40.2

----------
experimentNotes: PK, oral administration
Type: in vivo, male Sprague Dawley rats
conditionContext: male, Sprague Dawley, plasma, rat, 3 mg/kg
Structures can show the parent of a compound that is named as a salt.
The entries below come with measured half-life values attached.
measurementName: half-life (h)

>>> df
                                   compound  scaleunit  recordedvalue
0  COc1cc(-c2ccc3c(c2NC(=O)NS(=O)(=O)N(C)[C@@H]2CCN(C)C2)CCC3)ccn1 [Example 110, potassium salt]          h            3.4
1  COc1cc(-c2ccc3c(c2NC(=O)NS(=O)(=O)N(C)[C@H]2CCN(C)C2)CCC3)ccn1 [Example 111, potassium salt]          h              4

----------
The entries below come with measured IC50 values attached.
testedOn: NLRP3 (Homo sapiens, UniProt Q96P20)
Sequence (Q96P20 whole entry): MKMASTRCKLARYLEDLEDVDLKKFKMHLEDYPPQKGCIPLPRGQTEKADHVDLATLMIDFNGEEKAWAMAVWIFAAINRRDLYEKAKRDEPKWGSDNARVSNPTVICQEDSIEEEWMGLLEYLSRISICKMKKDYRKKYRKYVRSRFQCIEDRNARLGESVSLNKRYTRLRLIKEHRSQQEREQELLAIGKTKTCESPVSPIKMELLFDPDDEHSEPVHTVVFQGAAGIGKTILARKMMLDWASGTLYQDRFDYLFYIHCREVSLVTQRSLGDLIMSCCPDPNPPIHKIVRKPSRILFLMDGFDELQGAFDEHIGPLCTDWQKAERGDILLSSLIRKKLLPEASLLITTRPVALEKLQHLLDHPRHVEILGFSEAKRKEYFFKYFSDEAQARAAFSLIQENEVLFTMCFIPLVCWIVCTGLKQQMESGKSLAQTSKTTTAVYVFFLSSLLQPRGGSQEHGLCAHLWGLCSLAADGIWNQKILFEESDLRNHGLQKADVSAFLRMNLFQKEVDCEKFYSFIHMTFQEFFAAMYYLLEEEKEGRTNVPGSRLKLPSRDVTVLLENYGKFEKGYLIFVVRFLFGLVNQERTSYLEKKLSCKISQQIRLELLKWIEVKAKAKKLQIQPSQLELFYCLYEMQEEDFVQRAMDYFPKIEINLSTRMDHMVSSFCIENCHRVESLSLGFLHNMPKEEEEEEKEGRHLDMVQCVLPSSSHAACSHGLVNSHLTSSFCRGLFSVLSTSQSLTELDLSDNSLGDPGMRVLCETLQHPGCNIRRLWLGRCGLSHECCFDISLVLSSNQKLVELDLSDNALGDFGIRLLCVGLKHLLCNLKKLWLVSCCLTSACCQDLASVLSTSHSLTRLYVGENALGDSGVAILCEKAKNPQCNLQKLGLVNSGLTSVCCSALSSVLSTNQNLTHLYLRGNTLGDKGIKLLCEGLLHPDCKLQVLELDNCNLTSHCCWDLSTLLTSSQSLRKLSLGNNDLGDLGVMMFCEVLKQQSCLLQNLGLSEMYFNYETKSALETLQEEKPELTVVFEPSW
experimentNotes: Human whole blood IL-1β release assay (LPS + nigericin, AlphaLisa)
Type: cell-based
Design: Plate out 80 μl of whole blood containing 1 μg/ml of LPS; from tissue; host or cells: human whole blood from healthy donors
conditionContext: human whole blood, 1 μg/ml LPS, 10 μM nigericin; IL-1β release; read-out: HWB IC50
Structures can show the parent of a compound that is named as a salt.
measurementName: IC50

In [3]: df
Out[3]:
                                    compound                              testedon  recordedvalue
 0  CN1CCC(N(C)S(=O)(=O)NC(=O)Nc2c3c(cc4c2CCC4)CCC3)C1 (stereo not drawn) [Example 11, potassium salt]  NLRP3 (Homo sapiens, UniProt Q96P20)       < 500 nM
 1  CN1CCCC(NS(=O)(=O)NC(=O)Nc2c3c(cc4c2CCC4)CCC3)C1 (stereo not drawn) [Example 52, potassium salt]  NLRP3 (Homo sapiens, UniProt Q96P20)       < 500 nM
 2  CN(C)CCCNS(=O)(=O)NC(=O)Nc1c2c(cc3c1CCC3)CCC2 [Example 81, potassium salt]  NLRP3 (Homo sapiens, UniProt Q96P20)       < 500 nM
 3  CN1CCC[C@@H]1CN(C)S(=O)(=O)NC(=O)Nc1c2c(cc3c1CCC3)C=CC2 [Example 112, potassium salt]  NLRP3 (Homo sapiens, UniProt Q96P20)      < 5000 nM
 4  CCN1C2CCC1CN(S(=O)(=O)NC(=O)Nc1c3c(cc4c1CCC4)CCC3)C2 [Example 61, potassium salt]  NLRP3 (Homo sapiens, UniProt Q96P20)       < 500 nM
 5  CN(C)CCN(Cc1ccccc1)S(=O)(=O)NC(=O)Nc1c2c(cc3c1CCC3)CCC2 [Example 10, potassium salt]  NLRP3 (Homo sapiens, UniProt Q96P20)      < 5000 nM
 6  CC(C)N1CCC(N(C)S(=O)(=O)NC(=O)Nc2c3c(cc4c2CCC4)CCC3)C1 (stereo not drawn) [Example 36, potassium salt]  NLRP3 (Homo sapiens, UniProt Q96P20)      < 1000 nM
 7  CN1CCC(NS(=O)(=O)NC(=O)Nc2c3c(cc4c2CCC4)CCC3)C1 (stereo not drawn) [Example 44, potassium salt]  NLRP3 (Homo sapiens, UniProt Q96P20)       < 500 nM
 8  CN1CC2CN(S(=O)(=O)NC(=O)Nc3c4c(cc5c3CCC5)CCC4)C2C1 (stereo not drawn) [Example 94, potassium salt]  NLRP3 (Homo sapiens, UniProt Q96P20)      < 1000 nM
 9  CCN1CC2CCC(C1)N2S(=O)(=O)NC(=O)Nc1c2c(cc3c1CCC3)CCC2 [Example 62, potassium salt]  NLRP3 (Homo sapiens, UniProt Q96P20)      < 1000 nM
10  CN1CCC1CNS(=O)(=O)NC(=O)Nc1c2c(cc3c1CCC3)CCC2 (stereo not drawn) [Example 31, potassium salt]  NLRP3 (Homo sapiens, UniProt Q96P20)       < 500 nM
11  O=C(Nc1c2c(cc3c1CCC3)CCC2)NS(=O)(=O)N1CC(N2CCC2)C1 [Example 46, potassium salt]  NLRP3 (Homo sapiens, UniProt Q96P20)      < 5000 nM
12  CN1CCCC1CNS(=O)(=O)NC(=O)Nc1c2c(cc3c1CCC3)CCC2 (stereo not drawn) [Example 25, potassium salt]  NLRP3 (Homo sapiens, UniProt Q96P20)       < 500 nM
13  CN(C)CC1CCN(S(=O)(=O)NC(=O)Nc2c3c(cc4c2CCC4)CCC3)C1 (stereo not drawn) [Example 68, potassium salt]  NLRP3 (Homo sapiens, UniProt Q96P20)      < 1000 nM
14  CC(C)NCCNS(=O)(=O)NC(=O)Nc1c2c(cc3c1CCC3)CCC2 [Example 26]  NLRP3 (Homo sapiens, UniProt Q96P20)      < 1000 nM

----------
testedOn: NLRP3 (Homo sapiens, UniProt Q96P20)
experimentNotes: THP-1 cells pyroptosis assay (LPS + nigericin, resazurin read-out)
Format: cell-based
Design: Seed THP-1 cells (25,000 cells/well) containing 1.0 μg/ml LPS; host or cells: THP-1 cells
conditionContext: THP-1 cells, 1 μg/ml LPS, 5 μM nigericin; NLRP3 inhibitory activity; read-out: THP IC50
Counter-ions that a name gives are not always drawn.
The entries below come with measured IC50 values attached.
measurementName: IC50

In [3]: df
Out[3]:
                                   compound  recordedvalue
0  CN1CC[C@@H](NS(=O)(=O)NC(=O)Nc2c3c(cc4c2CCC4)CCC3)C1 [Example 89, potassium salt]       < 0.5 µM
1  CN1CC[C@H](NS(=O)(=O)NC(=O)Nc2c3c(cc4c2CCC4)CCC3)C1 [Example 88, potassium salt]         < 1 µM
2  CCN(CCN(C)C)S(=O)(=O)NC(=O)Nc1c2c(cc3c1CCC3)CCC2 [Example 39, potassium salt]       < 0.5 µM
3  CN1CC2CN(S(=O)(=O)NC(=O)Nc3c4c(cc5c3CCC5)CCC4)CC21 (stereo not shown)       < 0.5 µM

Data provenance is patent US12187702B2.
